# TARGET_ENTITY: recombinant human ALK enzyme (ALK WT) (Homo sapiens)
# Construct: purchased Carna Biosciences 08-518
# Sequence (Q9UM73 1058-1620 limits assumed): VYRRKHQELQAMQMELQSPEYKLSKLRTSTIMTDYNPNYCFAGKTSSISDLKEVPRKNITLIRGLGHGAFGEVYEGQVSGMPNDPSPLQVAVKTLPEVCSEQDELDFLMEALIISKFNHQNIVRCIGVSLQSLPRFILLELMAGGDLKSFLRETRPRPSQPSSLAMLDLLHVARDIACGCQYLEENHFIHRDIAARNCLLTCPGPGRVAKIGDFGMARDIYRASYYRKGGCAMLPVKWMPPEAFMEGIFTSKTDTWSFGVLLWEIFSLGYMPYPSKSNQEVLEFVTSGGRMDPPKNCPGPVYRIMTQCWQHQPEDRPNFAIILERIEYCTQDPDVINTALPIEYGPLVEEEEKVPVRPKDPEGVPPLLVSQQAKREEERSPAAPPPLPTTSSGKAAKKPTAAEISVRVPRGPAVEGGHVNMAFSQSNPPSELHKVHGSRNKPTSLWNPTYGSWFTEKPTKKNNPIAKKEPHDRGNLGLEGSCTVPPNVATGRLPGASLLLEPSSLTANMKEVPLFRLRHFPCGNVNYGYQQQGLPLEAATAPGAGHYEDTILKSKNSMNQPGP
# METHOD_DESCRIPTION: ALK WT cell free enzymatic assay (TR-FRET)
# Type: biochemical
# CONDITION_PARAMETERS: compound at 100 nM; 30 min pre-incubation; 1 μM ATP
REPORTED_METRIC: inhibition at 0.1 µM (%)

The examples below pair each entry with its known result.
COMPOUND	inhibition at 0.1 µM, %
Cc1nn(Cc2cccc(F)c2)cc1-c1c[nH]c2ncc(-c3ccc(N4CCN(C[C@H](C)O)CC4)cc3)cc12 [Example 130]	88
Cc1nn(Cc2cccc(F)c2)c(C)c1-c1c[nH]c2ncc(-c3ccc(N4CCN(C[C@H](C)O)CC4)nc3)cc12 [Example 161]	86
OCCN1CCN(c2ccc(-c3cnc4[nH]cc(-c5cnn(Cc6cccc(F)c6)c5)c4c3)cn2)CC1 [Example 142]	94
Fc1cc(F)cc(Cn2cc(-c3c[nH]c4ncc(-c5ccc(N6CCNCC6)nc5)cc34)cn2)c1 [Example 134]	97
Fc1cccc(Cn2cc(-c3c[nH]c4ncc(-c5ccc(C6CCNCC6)cc5)cc34)cn2)c1 [Example 82]	99

A: NC(=O)CN1CCC(Cc2cccc(-c3cnc4[nH]cc(-c5cnn(Cc6cccc(F)c6)c5)c4c3)c2)CC1 [Example 184]
B: O=C(CC1CC1)N1CCN(c2ccc(-c3cnc4[nH]cc(-c5cnn(Cc6cccc(F)c6)c5)c4c3)cc2)CC1 [Example 124]
Between A and B , whose recorded inhibition at 0.1 µM is greater? Selection: enter the item's label.
A
